biological target: Acetylcholinesterase (Electrophorus electricus, UniProt O42275)
Sequence (O42275 whole entry): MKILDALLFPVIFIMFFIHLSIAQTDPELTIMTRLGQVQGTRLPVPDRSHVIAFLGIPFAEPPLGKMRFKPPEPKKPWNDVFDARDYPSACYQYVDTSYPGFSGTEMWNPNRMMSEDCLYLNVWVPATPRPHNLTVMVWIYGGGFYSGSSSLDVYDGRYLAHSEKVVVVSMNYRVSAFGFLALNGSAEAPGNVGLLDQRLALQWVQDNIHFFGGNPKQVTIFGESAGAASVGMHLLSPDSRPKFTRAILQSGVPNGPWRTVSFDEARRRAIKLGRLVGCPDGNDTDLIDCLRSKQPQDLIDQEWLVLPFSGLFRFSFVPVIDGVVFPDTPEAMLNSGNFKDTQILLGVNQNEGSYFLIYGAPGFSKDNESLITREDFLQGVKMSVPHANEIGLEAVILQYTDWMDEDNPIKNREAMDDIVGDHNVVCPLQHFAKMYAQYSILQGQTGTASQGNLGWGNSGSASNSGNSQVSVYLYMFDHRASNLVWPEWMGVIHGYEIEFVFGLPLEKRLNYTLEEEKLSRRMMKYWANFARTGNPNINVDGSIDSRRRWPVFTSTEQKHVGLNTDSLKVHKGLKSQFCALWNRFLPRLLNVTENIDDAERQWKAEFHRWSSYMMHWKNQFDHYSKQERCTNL
Where a name gives a salt, the structure may show the parent alone.
Examples of compounds with documented log10 IC50 follow.
EXPERIMENTAL ENDPOINT: log10 IC50 (log10 of the value in µM)

[[record]]
compound = "COc1cc2c(cc1OC)-c1cc3cc(OC)c(OC)cc3c[n+]1CC2 [PSEUDOPALMATINE TRIFLUOROACETATE]"
measured_value = 0.26

[[record]]
compound = "COc1cc2c(cc1OC)-c1cc3ccc(O)c(OC)c3c[n+]1CC2 [DEHYDROCORYDALMINE TRIFLUOROACETATE]"
measured_value = 1.98

[[record]]
compound = "COc1cc2c(cc1O)C=[N+](C)CC2"
measured_value = 1.20

[[record]]
compound = "COc1cc2c(cc1O)-c1cc3cc(OC)c(OC)cc3c[n+]1CC2 [PSEUDOCOLUMBAMINE TRIFLUOROACETATE]"
measured_value = 0.70

[[record]]
compound = "COc1cc2ccnc3c2c(c1OC)-c1ccccc1C3=O"
measured_value = 1.21

[[record]]
compound = "COc1c(O)cc2c3c1-c1ccccc1C[C@H]3NCC2"
measured_value = 2.09

